For each of the sequences below, state its INDIVIDUAL ES LOO_TCR7.
Test system: pooled TCR1, TCR2, TCR3, TCR5, TCR7, TCR24, TCR37 with one TCR left out
Assay: Multiplexed TCR/library dropout screen, individual ES of each leave-one-out pool
Format: cell-based, mouse
Conditions: leave-one-out pool without TCR7
Hey, just send me the number, nothing else.

Name the reported INDIVIDUAL ES LOO_TCR7 value associated with the sequence "AEKVRNLPAGHGLNAQ" -1.1271e-5

Please do the same for "AAVEEGIVAGGGVTLL" as well. 1.545e-5

Please do the same for "AKAAVEEGIVAGGGV" as well. 9.492e-5

Please do the same for "AGGVAVIKAGAATEV" as well. 3.872e-6

Please do the same for "ALVREGLRNVAAGANP" as well. -1.224e-5

This collection of values is drawn from paper PMC11093748.
